Target: internal research reagent human Fab (hFab)
Experiment: SPR (Biacore T200), mAb captured by anti-rabbit mAb on CM5, antigen 80-0 nM, 1:1 fit
Attribute: kon
Kindly provide the numeric value in M⁻¹ s⁻¹ only, without the unit symbol.

**Query** Given rabbit anti-human IgG monoclonal antibody clone 9E6 (antibody, V domains shown) VH: QSLEESGGDLVKPGASLTLTCKASGFDFSSSYYMCWVRQAPGRLEWIACIYGGGLSNTYYAGWAKGRFTISKTSSTTVTLQMTSLTVADTATYFCARDAGTSGDYLNLWGPGTLVTVSS VL: AVVMTQTASPVSGAVGGTVTINCQASQSISSSYLSWYQQKPGQPPKLLIYGASTLASGVPSRFKGSGSGTQFTLTISGVQCDDAATYYCAYDAYRLSSPDNIFGGGTEVVVKG , state its recorded kon.
**Result** 1.16e+07

**Query** Given rabbit anti-human IgG monoclonal antibody clone 2C5 (antibody, V domains shown) VH: QEQLVESGGDLVKPGASLTLTCTASGFSFSSGYYMCWVRQAPGKGLEWIACIYGGALTNTYYATWAKGRFTISKTSSTTVTLQMTSLTAADTATYFCARDLGAAGDAYNLWGPGTLVTVSS VL: ASDMTQTPASVSAAVGGTVTIKCQASESIYSGLAWYQQKPGQPPKLLIFDASDLASGVPSRFKGSRSETEYTLTISDLECADAATYYCQCTDRNSITSYAFGGGTEVVVKG , state its recorded kon.
**Result** 2.65e+06

**Query** Given rabbit anti-human IgG monoclonal antibody clone 16F5 (antibody, V domains shown) VH: QQQLEESGGGLVKPGGTLTLTCKASGIDFSNYYYMCWVRQAPGKGLELIACIYTGSSGSTWYATWAKGRFTISKTSSTTVTLQMTSLTAADTATYFCARDRDVGSLYDSLDLWGQGTLVTVSP VL: AYDMTQTPASVEAAVGGTVTINCQASQSINNWLSWYQQKPGQRPKLLIYQASTLASGVSSRFKGSGSGTHFTLTISDLECADAATYYCQQGWSIDDIDNAFGGGTEVVVKG , state its recorded kon.
**Result** 3.02e+06

**Query** Given rabbit anti-human IgG monoclonal antibody clone 11G5 (antibody, V domains shown) VH: QSLEESGGDLVKPGASLTLTCTASGFSFSSSYYMCWVRQAPGKRLEWIACIYGGGLSNTYYAGWAKGRFTISKTSSTTVTLQMTSLTAADTATYFCARDATSGDYLNLWGPGTLVTVSS VL: AVVMTQTASPVSGAVGGTVTINCQASQSISASALSWYQQKPGQPPKLLIYAASTLESGVPSRFKGSGSGTQFTLTISGVQCDDAATYYCAYDGYRLSSADNIFGGGTEVVVKG , state its recorded kon.
**Result** 899000
